// provenance: patent US6982260B1

target: cdk2/A (Homo sapiens); test: cdk2/A kinase assay; settings: 32P incorporation into retinoblastoma, 25° C., 15 minutes; read-out: Cdk2A IC50
Please go through the items and note down their IC50.
Please state the figure in nM; there is no need to write the unit.

For reference, reported IC50 for COc1ccc2cnc(Nc3ccc(N4CCN(C(=O)OC(C)(C)C)CC4)cc3)nc2c1C1CCCC1 [Example 26] stands at 646

For reference, reported IC50 for COc1ccc2cnc(Nc3ccc(N4CCOCC4)c(F)c3)nc2c1C1CCCC1 [Example 43] stands at 966

For reference, reported IC50 for COc1ccc2cnc(Nc3ccc(F)c(C)c3)nc2c1C1CCCC1 [Example 48] stands at 574

For reference, reported IC50 for CC(C)c1c(O)ccc2cnc(Nc3ccccc3)nc12 [Example 29] stands at 250

For reference, reported IC50 for COc1ccc2cnc(Nc3ccc(F)c(C)c3)nc2c1C(C)C [Example 46] stands at 246

For reference, reported IC50 for COc1ccc2cnc(Nc3ccc(N4CCC(N)C4)cc3)nc2c1C(C)C (stereo not drawn) [Example 37] stands at 296

For reference, reported IC50 for COc1ccc2cnc(Nc3ccc(N4CCNCC4)c(F)c3)nc2c1C1CCCC1 [Example 50] stands at 62

For reference, reported IC50 for COc1ccc2cnc(Nc3ccc(N4CCOCC4)cc3)nc2c1C(C)C [Example 39] stands at 665

For reference, reported IC50 for COc1ccc2cnc(Nc3ccc(N4CCN(C(=O)C(N)CC(C)C)CC4)cc3)nc2c1C1CCCC1 (stereo not drawn) [Example 42] stands at 103
